Tested on: SETFA
experiment-notes: Post-emergence herbicidal activity, glasshouse pot test; further: key: 5=total damage to plant; 0=no damage to plant
Format: in vivo
experimental-conditions: Setaria faberi; application post-emergence; rate 1000 g/Ha; evaluated after 13 days
measurement-name: Post-emergence herbicidal activity SETFA (damage score 0-5)

> print(dat)
                                    compound  target  reported.value
 1  CC1C(O)N(c2cc(C(F)(F)F)ccn2)C(=O)N1C(F)F (centres unmarked)   SETFA               4
 2  COc1cnc(N2C(=O)N(C)C(C)C2O)cc1C(F)(F)F (centres unmarked)   SETFA               5
 3  CC1NC(=O)N(c2cc(C(F)(F)F)ccn2)C1O (centres unmarked)   SETFA               3
 4  CC1C(O)N(c2cc(C(F)(F)F)c(NC(=O)C(C)(C)C)cn2)C(=O)N1C (single isomer, unassigned)   SETFA               5
 5  CC1C(O)N(c2cc(C(F)(F)F)c(I)cn2)C(=O)N1C (centres unmarked)   SETFA               5
 6  CCOC1C(OC(=O)[C@@H](OC(C)=O)c2ccccc2)N(c2cc(C(F)(F)F)ccn2)C(=O)N1C (some centres unmarked)   SETFA               5
 7  CC1C(O)N(c2cc(C(F)(F)F)c(-c3ccccn3)cn2)C(=O)N1C (centres unmarked)   SETFA               5
 8  CCOC1C(O)N(c2cc(C(F)(F)F)c(C)cn2)C(=O)N1C (centres unmarked)   SETFA               5
 9  O=C1N2CCOC2C(O)N1c1cc(C(F)(F)F)ccn1 (centres unmarked)   SETFA               5
10  CCOC1C(O)N(c2cc(C(F)(F)F)c(I)cn2)C(=O)N1C (centres unmarked)   SETFA               5
11  C[C@H]1C(O)N(c2cc(C(F)(F)F)ccn2)C(=O)N1C (mixture of isomers)   SETFA               5
12  O=C1N(c2cc(C(F)(F)F)ccn2)C(O)[C@H]2CCCN12 (some centres unmarked)   SETFA               5
13  COc1cncc(-c2cnc(N3C(=O)N(C)C(C)C3O)cc2C(F)(F)F)c1 (centres unmarked)   SETFA               5
14  CC1C(O)N(c2cc(Cl)c(C(=O)NC(C)(C)C)cn2)C(=O)N1C (centres unmarked)   SETFA               5
15  CON1C(=O)N(c2cc(C(F)(F)F)c(Cl)cn2)C(O)C1C (centres unmarked)   SETFA               5
16  CON1C(=O)N(c2cc(C(C)(F)F)ccn2)C(O)C1C (single isomer, unassigned)   SETFA               5
17  O=C1N2COCC2C(O)N1c1cc(C(F)(F)F)ccn1 (single isomer, unassigned)   SETFA               5
18  CON1C(=O)N(c2cc(C(F)(F)Cl)ccn2)C(O)[C@@H]1C (some centres unmarked)   SETFA               5
19  CON1C(=O)N(c2cc(C(F)(F)F)ccn2)C(O)[C@@H]1C (mixture of isomers)   SETFA               5
20  CC1C(O)N(c2ccc(C(F)(F)F)cn2)C(=O)N1C (centres unmarked)   SETFA               5
21  CC1C(O)N(c2cc(C(F)(F)F)ccn2)C(=O)N1O (centres unmarked)   SETFA               4
22  CCOC1C(O)N(c2cc(Cl)c(C(=O)NC(C)(C)C)cn2)C(=O)N1C (centres unmarked)   SETFA               4
23  CON1C(=O)N(c2cc(C(F)(F)F)ccn2)C(NCc2ccccc2)[C@@H]1C (some centres unmarked)   SETFA               5
24  CCOC1C(O)N(c2cc(C(F)(F)F)c(-c3ccccc3)cn2)C(=O)N1C (centres unmarked)   SETFA               5
25  COCc1cnc(N2C(=O)N(C)C(C)C2O)cc1C(F)(F)F (centres unmarked)   SETFA               5
26  CCOC1C(O)N(c2cc(C(F)(F)F)ccn2)C(=O)N1CC (centres unmarked)   SETFA               3
27  COCCOCc1cnc(N2C(=O)N(C)C(C)C2O)cc1C(F)(F)F (centres unmarked)   SETFA               5
28  Cc1cnc(N2C(=O)N(C)C(C)C2O)cc1C(F)(F)F (single isomer, unassigned)   SETFA               5
29  CC1C(O)N(c2cc(C(C)(F)F)ccn2)C(=O)N1C (centres unmarked)   SETFA               3
30  CCO[C@@H]1[C@@H](OC(=O)[C@](OC)(c2ccccc2)C(F)(F)F)N(c2cc(C(F)(F)F)ccn2)C(=O)N1C   SETFA               1
31  C=CCC1C(O)N(c2cc(C(F)(F)F)ccn2)C(=O)N1C (centres unmarked)   SETFA               5
32  CCOC1C(OC(C)=O)N(c2cc(C(F)(F)F)ccn2)C(=O)N1C (centres unmarked)   SETFA               5
33  CON1C(=O)N(c2cc(C(F)(F)F)c(C)cn2)C(O)[C@@H]1C (some centres unmarked)   SETFA               5
34  C=CCN1C(=O)N(c2cc(C(F)(F)F)ccn2)C(O)C1C (centres unmarked)   SETFA               5
35  CC1C(O)N(c2cc(C(C)(C)C)ccn2)C(=O)N1C (single isomer, unassigned)   SETFA               5

src = patent US11608323B2
